target: AAK1 (full length human) (Homo sapiens); construct: HA; expressed in transfected cells; host or cells: HEK293F; assay: HEK281 Cell-Based Assay (HEK293F cells transfected with AAK1 and AP2M1; phospho-mu2 Western blot); settings: 3 h, listed as IC50 ranges
Sequence (Q2M2I8 whole entry): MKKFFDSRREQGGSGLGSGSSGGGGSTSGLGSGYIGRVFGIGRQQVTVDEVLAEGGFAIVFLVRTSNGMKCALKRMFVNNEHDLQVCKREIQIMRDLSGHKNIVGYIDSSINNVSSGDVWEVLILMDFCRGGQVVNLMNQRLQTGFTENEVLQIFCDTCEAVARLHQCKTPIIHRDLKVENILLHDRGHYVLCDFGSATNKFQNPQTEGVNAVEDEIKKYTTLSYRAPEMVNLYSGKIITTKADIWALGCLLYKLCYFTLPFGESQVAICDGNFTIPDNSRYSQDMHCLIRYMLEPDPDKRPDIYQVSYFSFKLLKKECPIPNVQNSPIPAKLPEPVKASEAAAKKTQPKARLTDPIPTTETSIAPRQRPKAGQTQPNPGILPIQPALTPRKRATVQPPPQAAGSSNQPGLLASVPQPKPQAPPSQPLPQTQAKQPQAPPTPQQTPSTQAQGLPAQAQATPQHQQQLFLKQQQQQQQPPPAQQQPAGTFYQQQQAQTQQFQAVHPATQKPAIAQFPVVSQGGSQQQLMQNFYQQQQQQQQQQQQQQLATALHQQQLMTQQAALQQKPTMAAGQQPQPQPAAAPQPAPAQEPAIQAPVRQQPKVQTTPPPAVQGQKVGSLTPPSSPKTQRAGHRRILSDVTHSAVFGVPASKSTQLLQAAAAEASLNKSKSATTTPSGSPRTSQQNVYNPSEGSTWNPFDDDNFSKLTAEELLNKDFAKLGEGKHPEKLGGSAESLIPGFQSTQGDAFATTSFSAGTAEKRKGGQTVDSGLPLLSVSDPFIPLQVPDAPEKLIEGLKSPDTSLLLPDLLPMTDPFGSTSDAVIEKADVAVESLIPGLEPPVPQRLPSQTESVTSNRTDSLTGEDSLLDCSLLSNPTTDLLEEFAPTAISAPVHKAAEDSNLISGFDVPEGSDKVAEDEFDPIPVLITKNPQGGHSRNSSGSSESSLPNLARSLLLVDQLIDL
Provide the reported IC50 of each item.

compound: CC(=O)Nc1cc2c(cn1)COc1cc(OC[C@@H](N)CC(C)C)ccc1-2
result-value: 10 to 100 nM

compound: CC(C)C[C@H](N)COc1ccc2c(c1)OC(C1CC1)c1cnccc1-2 (single isomer, unassigned) [Example 8b]
result-value: 10 to 100 nM

compound: CC(C)C[C@H](N)COc1cc2c(cc1C#N)-c1ccncc1C(C)O2 (mixture of isomers)
result-value: < 1 nM

Shifting focus to the compound that follows.
compound CC(C)C[C@H](N)COc1cc2c(cc1Br)-c1ccncc1C(C)O2 (mixture of isomers) , IC50 observed: < 1 nM

====

Consider the following molecules; for each one, report its pIC50.
Biological target: GST-Xa-hAAK1 (Homo sapiens)
Construct: made in house
Assay: AAK1 Kinase Assay (Caliper LabChip, fluoresceinated peptide substrate)
Type: biochemical
Conditions: ATP 22 μM; listed as IC50 ranges
Procedure: The assays were performed in U-bottom 384-well plates. […] The reactions were analyzed on the Caliper LabChip 3000 (Caliper, Hopkinton, Mass.) by electrophoretic separation of the fluorescent substrate and phosphorylated product. […] Compounds were dissolved at 10 mM in dimethylsulfoxide (DMSO) and evaluated at eleven concentrations. […]
pIC50: −log10 of the molar value.

// each listed molecule needs a value for pIC50
1. CC(C)C[C@H](N)COc1ccc2c(c1)OCc1cncc(F)c1-2
2. CC(C)C[C@H](N)COc1cc2c(cc1Br)-c1ccncc1C(C(F)(F)F)O2 (mixture of isomers)

8.00 to 9.00
8.00 to 9.00

For each of the items listed, what is its pIC50?
1. CC[C@@H](N)COc1ccc2c(c1)OCc1cnccc1-2
2. N[C@@H](COc1ccc2c(c1)OCc1cnccc1-2)Cc1ccccc1
3. CC(=O)Nc1cc2c(cn1)COc1cc(OCC(N)CCC(F)(F)F)ccc1-2 (racemic)
4. CC(C)C[C@H](N)COc1cc2c(cc1I)-c1ccncc1C(C)O2 (single isomer, unassigned) [Example 31b]
5. CC(=O)Nc1nccc2c1COc1cc(OC[C@@H](N)CC(C)C)ccc1-2
6. CC(C)C[C@H](N)COc1ccc2c(c1)OC(C1CC1)c1cnccc1-2 (single isomer, unassigned) [Example 8a]
7. CC(C)C[C@@H](N)COc1ccc2c(c1)OC(C1CC1)c1cnccc1-2 (some centres unmarked) [Example 9]

1: 6.00 to 7.00; 2: 6.00 to 7.00; 3: 7.00 to 8.00; 4: 8.00 to 9.00; 5: 7.00 to 8.00; 6: 6.00 to 7.00; 7: 6.00 to 7.00

Look up pIC50 for the entries below, preserving their order.
1. Cc1nccc2c1c(=O)oc1cc(OC[C@@H](N)CC(C)C)ccc12
2. CCC1Oc2cc(OC[C@@H](N)CC(C)C)ccc2-c2ccncc21 (single isomer, unassigned) [Example 10b]

7.00 to 8.00
7.00 to 8.00

====

molecular target: AAK1 (full length human) (Homo sapiens); construct: HA; expressed in transfected cells; host or cells: HEK293F; experiment: HEK281 Cell-Based Assay (HEK293F cells transfected with AAK1 and AP2M1; phospho-mu2 Western blot); details: 3 h, listed as IC50 ranges
pIC50: −log10 of the molar value.
Provide the recorded pIC50 for the entries that follow.

molecule: CC(C)C[C@H](N)COc1cc2c(cc1Br)-c1ccncc1CO2
result-value: 8.00 to 9.00
--
molecule: CCC1Oc2cc(OC[C@@H](N)CC(C)C)ccc2-c2ccncc21 (single isomer, unassigned) [Example 10a]
result-value: 7.00 to 8.00

Look at each molecule and report its pIC50.
1. CC(C)C[C@H](N)COc1ccc2c(c1)OC(C1CC1)c1cnccc1-2 (mixture of isomers) [Example 8]
2. CC(C)C[C@H](N)COc1ccc2c(c1)OC(C)c1c-2ccnc1N (stereo partly shown)

1. 7.00 to 8.00
2. 8.00 to 9.00
